Measured growth inhibition of individual entries
Experiment: NCI Yeast Anticancer Drug Screen. Data for the mlh1 rad18 strain (AID 175)
Settings: S. cerevisiae mlh1 rad18 strain growth inhibition; at 50.0 µM; active compounds read high
This is part of a sample that, as a whole, favours compounds with a hit. Of some 79,000 tested, about 15% had one in any assay. Activity calls are given as the source filed them. No stated cut-off is given here; in the data, active means growth inhibition above about 70%; inactive means the rest.

Request the reported growth inhibition associated with Cc1ccc(C)c2c1C(=O)c1ccccc1C2(O)C#Cc1ccccc1 (stereo not given)
23.2% (inactive)

Request the reported growth inhibition associated with CN(C)CCC(C(=O)C(C)(C)C)c1ccccn1 (stereo not given)
-0.6% (inactive)

Request the reported growth inhibition associated with COc1ccccc1N=Nc1c(C)nc(N)nc1-c1ccccc1
23.6% (inactive)

Request the reported growth inhibition associated with CCOc1ccccc1NC(=O)c1c(Br)c(Br)c(Br)c(Br)c1C(=O)O
-17.6% (inactive)

Request the reported growth inhibition associated with C[C@]1(CO)[C@H]2CC[C@@]34C=C[C@@](CO)(CC[C@H]3[C@]2(C)CC[C@H]1O)C4
-48.4% (inactive)

Request the reported growth inhibition associated with O=C1NC(=Nc2ccccc2Cl)SC1C(=O)Nc1ccc([N+](=O)[O-])cc1[N+](=O)[O-] (stereo not given)
-12.1% (inactive)

Request the reported growth inhibition associated with CCOC(=O)C1=C(O)c2ccc(OC)cc2C(=O)C1=O
0.3% (inactive)

Request the reported growth inhibition associated with COC(=O)Nc1cccc(-c2nc3ccc(NC(=O)OC)cc3c(=O)n2-c2ccccc2)c1
5% (inactive)

Request the reported growth inhibition associated with O=C1N(CCN2CCC3(CC2)OCCO3)CCN1c1cc(Cl)cc(Cl)c1
37.8% (inactive)

Request the reported growth inhibition associated with COC(=O)N/C(C)=N/OCc1ccccc1
-11.7% (inactive)

Request the reported growth inhibition associated with O=C(O)C(=Cc1ccnc2ccccc12)C(=O)O
3.5% (inactive)

Request the reported growth inhibition associated with O=C(/C=C/c1ccccc1)NC1C=Nc2ccc(Cl)cc2NC1=O (stereo not given)
26.2% (inactive)

----------
Test: NCI Yeast Anticancer Drug Screen. Data for the bub3 strain (AID 167)
Conditions: S. cerevisiae bub3 mutant strain, at 50.0 µM, active compounds read high
Experimental: Growth inhibition of yeast strains with defined genetic alterations is measured as a screen for potential anti-cancer activity. Selected strains with alterations in DNA damage repair or cell cycle control were exposed to compounds and growth inhibition was measured relative to vehicle treated controls. The strain used in this assay is bub3
This is part of a sample that, as a whole, favours compounds with a hit. Of some 79,000 tested, about 15% had one in any assay.
Measured growth inhibition of individual entries
Write it as a number; the unit % goes unstated.

These solved cases illustrate the format of a correct answer.
Cc1cc(=O)c2cc(-c3ccccc3)ccc2[nH]1
-1.5
COc1cc2c(c3[nH]cc(C(=O)O)c(=O)c13)NC(=O)CS2
-2.85
COc1ccccc1NC(=O)CC(C)=O
-15.8
Cc1ncc([N+](=O)[O-])n1CCNC(=O)CCn1ccnc1[N+](=O)[O-]
-18.7
O=C(O)CC1CC2CC(=O)C1C2 (configuration not stated)
-23.6

Request the reported growth inhibition associated with O=C1OCC/C1=C\c1cccc([N+](=O)[O-])c1
22.5

Request the reported growth inhibition associated with N#CC1=C(Nc2ccccc2)SC(c2cccs2)NC1=O (configuration not stated)
11.9

Request the reported growth inhibition associated with CC(=O)Nc1cc(-c2ccccc2)cc(-c2ccccc2)c1
10.7

Request the reported growth inhibition associated with C/C(=N\O)c1ccc2[nH]c(C)cc(=O)c2c1
-1.15

Request the reported growth inhibition associated with Cc1nc(N)sc1N=Nc1ccc(Br)cc1Br
46.9

Request the reported growth inhibition associated with Nc1nc(SC2CCCCC2)nc2c1ncn2C1OC(CO)C(O)C1O (configuration not stated)
-4.75

Request the reported growth inhibition associated with CCN(CC)C1=CC(=O)OC1OC (configuration not stated)
3.05

----------
Experiment: NCI Yeast Anticancer Drug Screen. Data for the sgs1 mgt1 strain (AID 161);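 further: 0% = growth of cultures given vehicle only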
Conditions: S. cerevisiae sgs1 mgt1 strain, at 50.0 µM
About 79,000 compounds went through this panel and 15% of them were active in at least one assay; those are over-represented in the sample as a whole. Activity calls are given as the source filed them. No stated cut-off is given here; in the data, active means growth inhibition above about 70%; inactive means the rest.
A correct response names exactly one class from YES = active, NO = inactive

Illustrative cases are given below, each with its answer.
N#CNC(=NCCO)NCCO
NO
COc1ccc(C=Nc2c(O)ccc3ccccc23)cc1OC
NO
N#Cc1c(C(=O)NN)c2c(-c3ccc4ccccc4c3)n[nH]c(=O)c2[nH]c1=O
NO

Each compound tested received a call. Report the one for N#CCCCCCCl .
NO

Each compound tested received a call. Report the one for Nc1ncnc2c1nnn2C1C=CC(CP(=O)(O)O)C1 (stereo not given) .
NO

Each compound tested received a call. Report the one for CC(=O)N(CN1C(=O)CCC1C(=O)O)c1ccccc1Cl (stereo not given) .
NO

----------
Assay: NCI Yeast Anticancer Drug Screen. Data for the mlh1 rad18 strain (AID 175)
Conditions: S. cerevisiae mlh1 rad18 strain growth inhibition; at 50.0 µM; active compounds read high
The panel holds about 79,000 compounds, 15% with a hit somewhere; the sample as a whole holds those more often.
Reported metric: growth inhibition (%)
Write it as a number; the unit % goes unstated.

These solved cases illustrate the format of a correct answer.
Cc1ccc2c(c1)CCCN2
7.55
O=CNCCN(C=O)CCO
-9.55

Request the reported growth inhibition associated with Clc1ccc(N=Cc2ccccc2)cn1
47.4

Request the reported growth inhibition associated with CC(=O)OC1COC(Cl)C(OC(C)=O)C1OC(C)=O (stereo not given)
1.75

Request the reported growth inhibition associated with O=c1[nH]nc(Cc2ccccc2)n1/N=C/c1cccnc1
45.6

Request the reported growth inhibition associated with Cc1cn(C2CC(O)C(COC(=O)C(C)(C)C)O2)c(=O)[nH]c1=O (stereo not given)
-47.5

Request the reported growth inhibition associated with CCC(O)(Cc1ccccc1)C(C(=O)O)c1ccccc1 (stereo not given)
-26

Request the reported growth inhibition associated with CC(C)C(CN)(C(C)C)C(C)C
-8.6

Request the reported growth inhibition associated with Cc1ccc(NC2=N/C(=C/c3ccco3)C(Cl)=N2)cc1
-31.9

Request the reported growth inhibition associated with NN(c1ccccc1)c1ccccc1
19.1

Request the reported growth inhibition associated with CC(=O)OCCOCNC(=S)N/N=C/c1ccc(Br)s1
-0.8

Request the reported growth inhibition associated with CCCCCCSc1ccc([N+](=O)[O-])cc1[N+](=O)[O-]
-21.1

Request the reported growth inhibition associated with OCCCCCCOc1ccc(-c2cc(-c3ccccn3)nc(-c3ccccn3)c2)cc1
65.5

Request the reported growth inhibition associated with COc1cc(NS(=O)(=O)c2ccccc2)c2nc3ccc(Cl)cc3nc2c1
12.3

Request the reported growth inhibition associated with CCOC(=O)c1c(NN)n[nH]c1C
8.85

Request the reported growth inhibition associated with CSc1nc(=O)cnn1C
-5.35

Request the reported growth inhibition associated with Cc1cc2ccccc2c[n+]1C1CCc2ccccc2C1=O (stereo not given)
20.2

Request the reported growth inhibition associated with COn1nnc2ccccc21
-18.1

Request the reported growth inhibition associated with CCn1c(=O)c2c3ccc(O)cc3[nH]c2c2ccc(O)cc21
-43.5

Request the reported growth inhibition associated with Cc1ccccc1C(c1ccccc1)C(CO)CO (stereo not given)
-17.4

Request the reported growth inhibition associated with Cc1ccc(S(=O)(=O)OCC2OC(CCCO)C/C([Si](C)(C)C)=C\CC2Cl)cc1 (stereo not given)
19.4

Request the reported growth inhibition associated with [O-][N+](=Nc1ccccc1)c1ccccc1
24

Request the reported growth inhibition associated with CCOC(=O)C(Cc1ccc([N+](=O)[O-])cc1)(Cc1ccc([N+](=O)[O-])cc1)C(=O)OCC
-17.2

Request the reported growth inhibition associated with CC(C)(C)OC(=O)[N+](=N)C(=O)C1CCC(=O)N1C(=O)OCc1ccccc1 (stereo not given)
-20

Request the reported growth inhibition associated with Cc1ccc(CCCC(N)=O)cc1
2.55

Request the reported growth inhibition associated with Nc1nc(=O)n(C2OC(CO)C(O)C2O)cc1F (stereo not given)
7.6

Request the reported growth inhibition associated with O=C1OC(c2ccccc2)=N/C1=C\c1cccnc1
13.1

Request the reported growth inhibition associated with S=c1[nH]c(=S)c2nnn(-c3ccccc3)c2[nH]1
-34

----------
Assay: NCI Yeast Anticancer Drug Screen. Data for the bub3 strain (AID 167)
Conditions: S. cerevisiae bub3 mutant strain, at 50.0 µM
This is part of a sample that, as a whole, favours compounds with a hit. Of some 79,000 tested, about 15% had one in any assay. The source made the active and inactive calls. Rule as the data show it: active = growth inhibition above about 70%; inactive = the rest.
A correct response names exactly one class from Yes for active, No for inactive

Illustrative cases are given below, each with its answer.
Cc1ccc(C(=O)CC(C#N)c2ccccc2)cc1 (configuration not stated)
No
CCOc1ccccc1C1=CCCCCC1
No
CN(C)NC(=S)NC12CC3CC(CC(C3)C1)C2
No
Oc1cc(-n2cccn2)c(O)cc1-n1cccn1
No
Cc1nn(-c2ccc(Cl)cc2)c2c1c(=O)[nH]c1ccccc12
No
[N-]=[N+]=NS(=O)(=O)CCc1ccc(Cl)cc1
No
CN(NC(=O)CCCl)C1=NCCN1
No
COCCCC(O)CNC(C)C (configuration not stated)
No
COC(=O)CCC(=O)Nc1ccccc1C(F)(F)F
No
CC1(C)C2CC3OC3(C)C1C2 (configuration not stated)
No

Each compound tested received a call. Report the one for C[C@H]1C(=O)c2c(cc(O)c(C3OC(CO)C(O)C(O)C3O)c2O)OC1c1ccc(O)c(O)c1 (some centres not stated) .
No

Each compound tested received a call. Report the one for OCN(CO)c1ccc2c(c1)Cc1cc(Cl)ccc1-2 .
No

Each compound tested received a call. Report the one for O=[N+]([O-])c1ccc(C2CC(c3ccccc3)=NN2c2ccccc2)cc1 (configuration not stated) .
No

Each compound tested received a call. Report the one for O=C(O)C(=O)Cc1ccccc1 .
No

Each compound tested received a call. Report the one for CSC1(C)CC2C(CC1N1CCCCC1)C2(C)C (configuration not stated) .
No

Each compound tested received a call. Report the one for CCOC(=O)C1(C(=O)OCC)C(C#N)(C#N)C1(C#N)C#N .
No

Each compound tested received a call. Report the one for CCOC(=O)c1c(SCCO)n(-c2ccccc2)c(=S)n(-c2ccccc2)c1=O .
No

Each compound tested received a call. Report the one for C=CCO[Si](C=C)(OCC=C)OCC=C .
No

Each compound tested received a call. Report the one for CCOC(=O)C(C#N)(Cc1ccccc1CC(C#N)(NC(C)=O)C(=O)OCC)NC(C)=O (configuration not stated) .
No

Each compound tested received a call. Report the one for COC(=O)[C@]12CCC(C)[C@H](C)[C@H]1C1=CCC3[C@@]4(C)CC[C@H](OC(C)=O)C(C)(C)C4CC[C@@]3(C)C1(C)C(O)C2 (some centres not stated) .
No

Each compound tested received a call. Report the one for CN(C)c1ccc(/C=N\NC(=S)Nc2ccc3cn[nH]c3c2)cc1 .
No

Each compound tested received a call. Report the one for O=C(CN1CCCC1)Nc1ccc2c(c1)C1Oc3ccccc3CC1CO2 (configuration not stated) .
No

Each compound tested received a call. Report the one for CCCCCCCC(=O)OCC1OC(n2cc(F)c(=O)[nH]c2=O)C(NC(=O)OCc2ccccc2)C(O)C1O (configuration not stated) .
No

Each compound tested received a call. Report the one for CC1(C)OCN(c2ccc(Cl)cc2)Cn2c1nc1ccccc12 .
No

Each compound tested received a call. Report the one for CCN/C(C)=C\C(=O)OCC .
No

Each compound tested received a call. Report the one for CCCCCC#CC(=O)OCC .
No

Each compound tested received a call. Report the one for CCCCN=CC(Cl)(Cl)C(=O)OCC .
No

Each compound tested received a call. Report the one for CC(=N\N=C(N)N)/C(N=Nc1ccc(S(N)(=O)=O)cc1)=N\N=C(N)N .
No
